Origin of values: the supplement of paper PMC9233669

Reported self-aminoacylation values for the following sequences.
tested on: biotinyl-Ile-oxazolone; test: self-aminoacylation, catalytic enhancement (BIO) (fold over background); higher = more active; k-Seq, kA / k0A0; sequences stand for … in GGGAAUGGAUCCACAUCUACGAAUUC…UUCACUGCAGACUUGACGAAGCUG
Fewer inactive variants are shown than the library holds.
PROPERTY LABEL: self-aminoacylation

1. CCACUCUUAAAGCAAUCGGUC [Fam1B.1 aminoacylation ribozyme variant]; 1.06
2. AUUCACCUGGGUCAUCGCGUG [Fam2.2 aminoacylation ribozyme variant]; 8.24
3. AGGUUUGCUAAUAGACGCAAG [Fam3.1 aminoacylation ribozyme variant]; 0.608
4. CUACUUCAAACAUUAGGUCUG [Fam1A.1 aminoacylation ribozyme variant]; 0.813
5. CCUCACUUCAAGCAAUCGAUC [Fam1B.1 aminoacylation ribozyme variant]; 0.494
6. CUACUGCAUACAAUCGGUCUG [Fam1A.1 aminoacylation ribozyme variant]; 0.677
7. ACUACCCUGGUCAUUGAGUGA [Fam2.1 aminoacylation ribozyme variant]; 4.12
8. AUAACCCUGGUCAUCGAAUGA [Fam2.1 aminoacylation ribozyme variant]; 0.882
9. CUACUUCAAAUAAUCGGUCCG [Fam1A.1 aminoacylation ribozyme variant]; 0.585
10. AUAACCCUGGUCAUCGAUUGA [Fam2.1 aminoacylation ribozyme variant]; 0.94
11. CUGCUGCAAACAAUCGGUCUG [Fam1A.1 aminoacylation ribozyme variant]; 1.05
12. AUUCAACUAGGUCUUCGGGUG [Fam2.2 aminoacylation ribozyme variant]; 2.93
13. CUAUUUCAAACAUUCGGUCUG [Fam1A.1 aminoacylation ribozyme variant]; 1.18
14. AUUGCCCUGGUCAACGAGUGA [Fam2.1 aminoacylation ribozyme variant]; 3.3
15. CCACACUUCAAGUACUCGGUC [Fam1B.1 aminoacylation ribozyme variant]; 1.17
16. AAGUUUGCUUAUACUCGCAAG [Fam3.1 aminoacylation ribozyme variant]; 0.779
17. AUUCAUCCAGGUCAUCGGGUG [Fam2.2 aminoacylation ribozyme variant]; 4.96
18. AAGUCUGCUAAUAGUCGAAAG [Fam3.1 aminoacylation ribozyme variant]; 1.1
19. UUUCACCUAGGUGAUCGGGUG [Fam2.2 aminoacylation ribozyme variant]; 3.55
20. CCCCAGUUCAAGCAAUCGGUC [Fam1B.1 aminoacylation ribozyme variant]; 2.48
21. CUACUUCAAACAAUAGGUCUU [Fam1A.1 aminoacylation ribozyme variant]; 0.947
22. GUACUUCAGACAAUCGGUCUG [Fam1A.1 aminoacylation ribozyme variant]; 1.22
23. CCACACUUCAAGGAAGCGGUC [Fam1B.1 aminoacylation ribozyme variant]; 0.986
24. AAGUUUGCUAAUAGUAUCAAG [Fam3.1 aminoacylation ribozyme variant]; 1
25. CUACCUCAAACAAGCGGUCUG [Fam1A.1 aminoacylation ribozyme variant]; 1.25
26. AUUCACCUACGUCAUAGGGUG [Fam2.2 aminoacylation ribozyme variant]; 0.915
27. CUUCUUAAAACAAUCGGUCUG [Fam1A.1 aminoacylation ribozyme variant]; 0.859
28. UUGCUUCAAACAAUCGGUCUG [Fam1A.1 aminoacylation ribozyme variant]; 2.12
29. AUUCAUCUAGGUUAUCGGGUG [Fam2.2 aminoacylation ribozyme variant]; 2.37
30. CUACAAUUCAAGCAAUCGGUC [Fam1B.1 aminoacylation ribozyme variant]; 0.902
31. CCACACUUCAAUCAGUCGGUC [Fam1B.1 aminoacylation ribozyme variant]; 0.963
32. AGGCUUGCUAAUAGUCGCAAG [Fam3.1 aminoacylation ribozyme variant]; 2.17
33. AAGUUUGCUAAUAGCCGCAUG [Fam3.1 aminoacylation ribozyme variant]; 1.07
34. AAGUUUGGUAAUAGCCGCAAG [Fam3.1 aminoacylation ribozyme variant]; 1.27
35. CUACUUCAAAAAAUCGUUCUG [Fam1A.1 aminoacylation ribozyme variant]; 0.605
